- experimentalTarget: human recombinant serotonin (5-Hydroxytryptamine) 5-HT2A receptor (Homo sapiens)
- Construct: expressed in transfected cells; host or cells: CHO-K1
- Sequence (P28223 whole entry): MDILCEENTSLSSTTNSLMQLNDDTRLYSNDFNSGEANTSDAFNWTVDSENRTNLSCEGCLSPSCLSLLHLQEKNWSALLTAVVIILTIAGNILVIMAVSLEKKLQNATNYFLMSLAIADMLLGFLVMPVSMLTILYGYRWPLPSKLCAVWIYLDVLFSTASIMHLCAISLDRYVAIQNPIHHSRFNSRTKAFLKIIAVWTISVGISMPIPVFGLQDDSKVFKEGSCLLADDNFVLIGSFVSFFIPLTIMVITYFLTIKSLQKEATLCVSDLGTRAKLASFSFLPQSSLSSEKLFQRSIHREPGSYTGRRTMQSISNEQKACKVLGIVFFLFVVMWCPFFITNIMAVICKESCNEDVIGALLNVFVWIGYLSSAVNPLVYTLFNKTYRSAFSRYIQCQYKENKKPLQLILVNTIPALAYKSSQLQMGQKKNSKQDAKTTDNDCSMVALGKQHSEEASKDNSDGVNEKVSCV
- assayProcedure: Serotonin 5-HT2A radioligand binding ([3H]Ketanserin)
- statedConditions: compound at 0.1 μM; CHO K1 cells; read-out: Percentage inhibition of ligand binding, Serotonin 5-HT2A
reportedEndpoint: inhibition at 0.1 µM (%)

[[record]]
compound = "Cc1ccc2c(c1)c1c3n2CCC(c2ccc(F)cc2)CC3(C)CN(C)C1 (stereo not drawn) [Compound 3]"
reportedendpoint = "inhibition at 0.1 µM"
uom = "%"
observedvalue = 45

[[record]]
compound = "Cc1ccc2c(c1)c1c3n2C(c2ccccc2)=CCC3(C)CN(C)C1 (stereo not drawn) [Compound 10]"
reportedendpoint = "inhibition at 0.1 µM"
uom = "%"
observedvalue = 13

[[record]]
compound = "Cc1ccc2c(c1)c1c3n2CC(c2ccc(F)cc2)CC3(C)CN(C)C1 (stereo not drawn) [Compound 6]"
reportedendpoint = "inhibition at 0.1 µM"
uom = "%"
observedvalue = 54


* * *

Catalogue of inhibition at 0.1 µM values
- experimentalTarget: human recombinant serotonin (5-Hydroxytryptamine) 5-HT2C receptor (Homo sapiens, UniProt P28335)
- Construct: expressed in transfected cells; host or cells: CHO-K1
- Sequence (P28335 33-458): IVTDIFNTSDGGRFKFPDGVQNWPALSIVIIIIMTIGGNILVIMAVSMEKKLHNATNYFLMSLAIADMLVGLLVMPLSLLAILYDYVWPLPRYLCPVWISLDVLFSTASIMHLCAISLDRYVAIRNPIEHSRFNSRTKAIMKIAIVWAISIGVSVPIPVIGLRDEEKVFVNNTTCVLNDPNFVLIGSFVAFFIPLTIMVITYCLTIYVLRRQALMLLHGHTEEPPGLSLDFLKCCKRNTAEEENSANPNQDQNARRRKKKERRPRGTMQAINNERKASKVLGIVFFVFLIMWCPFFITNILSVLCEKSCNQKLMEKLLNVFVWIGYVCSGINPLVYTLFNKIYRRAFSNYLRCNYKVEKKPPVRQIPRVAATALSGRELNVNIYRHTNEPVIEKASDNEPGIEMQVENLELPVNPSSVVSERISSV
- assayProcedure: Serotonin 5-HT2C radioligand binding ([3H]Mesulergine)
- statedConditions: compound at 0.1 μM; CHO K1 cells; read-out: Percentage inhibition of ligand binding, Serotonin 5-HT2C
reportedEndpoint: inhibition at 0.1 µM (%)

[[record]]
molecule = "Cc1ccc2c(c1)c1c3n2C(c2ccccc2)CCC3(C)CN(C)C1 (stereo not shown) [Compound 12]"
reportedendpoint = "inhibition at 0.1 µM"
observedvalue = 11

[[record]]
molecule = "Cc1ccc2c(c1)c1c3n2CC=C(c2ccc(F)cc2)CC3(C)CN(C)C1 (stereo not shown) [Compound 5]"
reportedendpoint = "inhibition at 0.1 µM"
observedvalue = 32

[[record]]
molecule = "Cc1ccc2c(c1)c1c3n2CC(c2ccncc2)OC(C)CC3(C)CN(C)C1 (stereo not shown) [Compound 8]"
reportedendpoint = "inhibition at 0.1 µM"
observedvalue = 54

[[record]]
molecule = "Cc1ccc2c(c1)c1c3n2CC(c2ccc(F)cc2)=CCC3(C)CN(C)C1 (stereo not shown) [Compound 1]"
reportedendpoint = "inhibition at 0.1 µM"
observedvalue = 45

[[record]]
molecule = "Cc1ccc2c(c1)c1c3n2CC(c2ccc(F)cc2)CCC3(C)CN(C)C1 (stereo not shown) [Compound 7]"
reportedendpoint = "inhibition at 0.1 µM"
observedvalue = 41

[[record]]
molecule = "Cc1ccc2c(c1)c1c3n2CC(c2ccncc2)CC3(C)CN(C)C1 (stereo not shown) [Compound 4]"
reportedendpoint = "inhibition at 0.1 µM"
observedvalue = 35

[[record]]
molecule = "Cc1ccc2c(c1)c1c3n2CC(c2ccc(F)cc2)CC3(C)CN(C)C1 (stereo not shown) [Compound 6]"
reportedendpoint = "inhibition at 0.1 µM"
observedvalue = 38


Every entry's value here was drawn from patent US9040519B2.
